Recorded values, source PubChem BioAssay (NCI).

Tested on: SF-295 CNS
test_name: NCI-60 one-dose screen, 48 h (100 = growth as untreated, 0 = no growth, -100 = all killed)
condition_description: 10 µM unless noted
This is part of a sample that, as a whole, favours compounds with a hit. Of some 83,000 tested, about 20% had one in any assay.
metric_name: growth (%)
Return type: number; implicit unit %.

Worked examples follow.
> print(dat)
                              smiles.string  metric.name  unit.of.measure  data.value
1  CC(C)c1ccc2nc3ccc(C(=O)NCCN4CCN(c5ccccc5)CC4)cn3c(=O)c2c1       growth                %        23.1
2  CCOC(=O)/C(=C\c1ccc(-c2ccccc2)cc1)C(C)=O       growth                %         102
3                   NC(=S)N/N=C/c1ccc(Cl)s1       growth                %         103
4  CCN1/C(=C\c2cc[n+](CC)c3ccccc23)C=Cc2ccccc21       growth                %        0.16

Now take the following compound into account.
Report growth for `S=C(NCCNC(=S)[S][Sn]([c]1ccccc1)([c]1ccccc1)[c]1ccccc1)[S][Sn]([c]1ccccc1)([c]1ccccc1)[c]1ccccc1` please.
-83.5

----------
// growth lookup, one value per entry
Tested on: MDA-MB-231 breast
test_name: NCI-60 one-dose screen, 48 h (100 = growth as untreated, 0 = no growth, -100 = all killed)
condition_description: 10 µM unless noted
Compounds without any hit were thinned out: in the full panel of roughly 83,000, 20% have a hit.
Return type: number; implicit unit %.

Report growth for `CC(=O)ON=C1C=CC(=C(C#N)c2ccccc2)C=C1` please.
13.9

Report growth for `COC(=O)c1nc(=S)[nH]c(C(=O)OC)c1C(=O)c1ccccn1` please.
33.6

Report growth for `O=C(/C=C\c1cc(Br)ccc1O)/C=C/c1cc(Br)ccc1O` please.
0.442

Report growth for `Cc1ccc(C(=Nc2ccccc2)N=P(c2ccccc2)(c2ccccc2)c2ccccc2)cc1` please.
-41

Report growth for `CNC(=O)N/N=C/c1ccc([N+](=O)[O-])o1` please.
97.6

----------
Test system: OVCAR-8 ovarian
test_name: NCI-60 one-dose screen, 48 h
condition_description: 10 µM unless noted
This is part of a sample that, as a whole, favours compounds with a hit. Of some 83,000 tested, about 20% had one in any assay. Active and inactive are the calls of the source. How the source made its calls: active means growth percent below 10; inactive means the rest.
Just give me one of these, please: active, inactive

Use these answered entries as a reference point.
> print(dat)
                                   compound  category.label
1  CCCCCCCCCCCCCCCCCCOP(=O)([O-])OC1CC[N+](C)(C)CC1        inactive
2                   Oc1c(Cl)cc(Cl)c2cccnc12        inactive
3  CN(C)C(=O)SC1=C(c2c(Cl)cccc2Cl)C(=O)c2ccccc21        inactive

Status in this test for `NC(=S)N/N=C/c1ccc(Cl)s1` ?
inactive

Status in this test for `O=C(/C=C\c1cc(Br)ccc1O)/C=C/c1cc(Br)ccc1O` ?
active

Status in this test for `CCCCCC(CCCCC)C(=O)O` ?
inactive

Status in this test for O=C(CC1(O)C(=O)Nc2c(Cl)ccc(Cl)c21)c1ccc(Cl)cc1Cl (stereo not given) ?
inactive

Status in this test for `O=[N+]([O-])c1ccc(N=Nc2ccc(O)cc2O)cc1` ?
inactive

Status in this test for `Cc1ccc2nc(-[n+]3cc4ccccc4cc3C)ccc2c1` ?
inactive
